Values compiled from PubChem BioAssay (NCI).

Test system: SK-OV-3 ovarian
RUN_DESCRIPTION: NCI-60 one-dose screen, 48 h
CONDITIONS: 10 µM unless noted
Compounds without any hit were thinned out: in the full panel of roughly 83,000, 20% have a hit. The source made the active and inactive calls. The calls were made as follows: active = growth percent below 10; inactive = the rest.
Permitted responses: Yes (active), No (inactive)

Some solved entries appear below for comparison.
MOLECULE	CLASS_NAME
CCCCC[C@H]1C/C=C2/C(=O)C=C[C@@H]2C/C=C\CCCC(=O)O1	Yes
Oc1cccc2ccc(N/N=C/c3cc(CN4CCOCC4)c(O)c4ncccc34)nc12	Yes
C#CCOc1ccc2ncnc(Nc3cccc(CNC(=O)C=C)c3)c2c1	No
COc1ccc(C2C(C#N)=C(N)Oc3n[nH]c(-c4cccs4)c32)cc1I (stereo not given)	No
COc1ccc(-c2nc3cc(C(=O)Nc4cc(OC)c(OC)c(OC)c4)ccc3n2C2CCCCC2)cc1	No
O=C1c2cc3c(cc2-c2c1c1ccc(F)cc1c(=O)n2C[C@H](O)[C@H](O)[C@H](O)CO)OCO3	Yes
CCn1c(O)c(/C=N/NC(=O)C(C)c2ccc(CC(C)C)cc2)sc1=S (stereo not given)	No
Cc1nc2ccccc2n1C(=O)C[C@@H]1NC(=S)NC1=O	No

Q) For Cc1cc2nc3[nH]c4ccccc4c3nc2cc1C , what call appears in the results of this test?
A) No

Q) For COc1cccc(-c2nc3sccn3c2-c2ccnc(NCCNS(=O)(=O)c3ccccc3)c2)c1 , what call appears in the results of this test?
A) No

* * *

System: UACC-62 melanoma
RUN_DESCRIPTION: NCI-60 one-dose screen, 48 h
CONDITIONS: 10 µM unless noted
This is part of a sample that, as a whole, favours compounds with a hit. Of some 83,000 tested, about 20% had one in any assay. Active and inactive are the calls of the source. Rule for the calls: active = growth percent below 10; inactive = the rest.
Permitted responses: active, inactive

COMPOUND	CLASS_NAME
O=C1c2ccccc2OC=C(c2ccccc2)N1CCCCNc1ccc(S(=O)(=O)Nc2ncccn2)cc1	inactive
CC(=O)Oc1ccc(Cl)cc1CN(C(C)=O)C1CCCCC1	inactive
CC(=O)c1cc2c(N)c(C(=O)Nc3cccc(F)c3C)sc2nc1C	inactive
O=C1Nc2c(ccc(Cl)c2Cl)/C1=C\c1ccc(C(F)(F)F)cc1	inactive
CC1CCNC(C)C1 (centres undefined)	inactive
COc1ccc2cc(-c3nn(-c4ccc(C(=O)O)cc4)cc3CO)ccc2c1	inactive
O=C1NC(=O)C(c2ccc(Cl)cc2Cl)N1 (centres undefined)	inactive
CC(=O)OCCC/C(=C/c1cc2ccccc2c2ccccc12)[N+](=O)[O-]	active
Cn1nc(N)c2cc([C@@H]3Nc4ccc5[nH]ncc5c4[C@H]4C5CCC(C5)[C@@H]34)ccc21 (some centres undefined)	inactive
Cc1nn(-c2cc(=O)[nH]c3ccccc23)c(N)c1C#N	inactive

Q) For C#CC(F)(F)[C@]1(O)CC[C@H]2[C@@H]3CCC4=CC(=O)CCC4=C3[C@@H](c3ccc(C4CC4)cc3)C[C@@]21C , what call appears in the results of this test?
A) inactive

Q) For CN(C)S(=O)(=O)c1ccc(S(=O)(=O)Nc2cccc(Cl)c2N2CCCCC2)cc1 , what call appears in the results of this test?
A) inactive

Q) For O=[N+]([O-])c1cnc(N2CCN(CC3CC3)CC2)nc1N1CCN(CC2CC2)CC1 , what call appears in the results of this test?
A) inactive

Q) For C=C1c2nc3ccccc3n2C=C(c2ccc(OC)cc2)N1Cc1ccccc1 , what call appears in the results of this test?
A) inactive

Q) For CCOC(=O)n1cc(-c2nonc2-c2cn(C)c3ncccc23)c2ccccc21 , what call appears in the results of this test?
A) inactive

Q) For Nc1nc2ccc3[nH]ncc3c2c2c1CCCC2 , what call appears in the results of this test?
A) inactive

Q) For CCCCn1c(-c2ccc(C(=O)O/N=C(\N)c3ccc4ccccc4c3)cc2)nc(-c2ccccc2)c1-c1ccccc1 , what call appears in the results of this test?
A) inactive

Q) For COc1cc2c(cc1-c1c(C)noc1C)ncc1nc(C3CCCCC3)n([C@H](C)COC(F)F)c12 , what call appears in the results of this test?
A) inactive

Q) For CCOC(=O)c1c(CN2CCN(C)CC2)nc2ccc(Cl)cc2c1-c1ccccc1 , what call appears in the results of this test?
A) inactive

Q) For O=C(Nc1ccccc1Cl)c1ccc(NC2=C(Cl)C(=O)N(C3CCCCC3)C2=O)cc1 , what call appears in the results of this test?
A) inactive

Q) For Cc1ccc(NC(=O)/C=C/c2ccccc2)c(C(N)=O)c1 , what call appears in the results of this test?
A) inactive

Q) For O=C1NC(=S)N[C@H]1CC(=O)n1cnc2ccccc21 , what call appears in the results of this test?
A) inactive

Q) For CC1C(/C=N/Nc2ccccc2)C(C#N)(C#N)C1(C#N)C#N (centres undefined) , what call appears in the results of this test?
A) active

* * *

System: OVCAR-4 ovarian
RUN_DESCRIPTION: NCI-60 one-dose screen, 48 h
CONDITIONS: 10 µM unless noted
The panel holds about 83,000 compounds, 20% with a hit somewhere; the sample as a whole holds those more often. Active and inactive are the calls of the source. The calls were made as follows: active = growth percent below 10; inactive = the rest.
Permitted responses: y (active), n (inactive)

Some solved entries appear below for comparison.
COMPOUND	CLASS_NAME
Cn1cc(C(=O)c2nc(-c3c[nH]c4ccccc34)no2)c2ccccc21	n
O=C1C=CC(=O)N1c1ccc2c(c1)Cc1cc(F)ccc1-2	n
Cc1ccc2c(c1)C(=O)/C(=C/c1cccc(OCC(=O)c3ccc(Cl)cc3)c1)CS2	n
CCN1CCC2(CC1)NC(=O)c1c(c3ccc(Cl)c(Cl)c3n1C)C2C#N (stereo unspecified)	n
NC(=NC1C2CC3CC(C2)CC1C3)Nc1ccc(I)cc1 (stereo unspecified)	n
C=C1c2nc3ccccc3n2C=C(c2ccc(OC)cc2)N1Cc1ccccc1	n
Cc1ccc2c(C(C[N+](=O)[O-])c3ccccc3)c(-c3ccccc3)[nH]c2c1 (stereo unspecified)	n
Cc1[nH]c(-c2cc(N)ccc2Cl)c2c1C(=O)CCCC2	n
COc1cc(C2CC(=O)c3ccccc3N2)cc(OC)c1OC (stereo unspecified)	n
COc1ccc(/C=C/C(=O)c2ccc(O)c(CN3CCN(c4cc5c(cc4F)c(=O)c(C(=O)O)cn5C4CC4)CC3)c2)cc1	n

Q) For Cc1cn2c(/C=C3/C(=O)Nc4c3ccc3ccccc43)c(C(F)(F)F)nc2s1 , what call appears in the results of this test?
A) n

Q) For C=CCSSc1ncnc2c1ncn2C1OC(CO)C(O)C1O (stereo unspecified) , what call appears in the results of this test?
A) n

Q) For Clc1ccc2c(NCCCNc3nc(-n4ccnc4)nc4ccccc34)ccnc2c1 , what call appears in the results of this test?
A) n

Q) For CC(=O)Nc1ccc(S(=O)(=O)Nc2cccc(-c3nc(-c4ccc(NC(=O)c5cccnc5)cc4Cl)no3)c2)cc1 , what call appears in the results of this test?
A) n

Q) For O=S(=O)(Nc1ccc(I)cc1F)c1ccc(-c2cnc(C3CC3)o2)cc1 , what call appears in the results of this test?
A) n

Q) For COc1ccc(-n2nc(C)c3c(Nc4ccc(NC(=O)Nc5c(Cl)cccc5Cl)cc4)ncnc32)cc1 , what call appears in the results of this test?
A) n

* * *

Tested on: UACC-257 melanoma
RUN_DESCRIPTION: NCI-60 one-dose screen, 48 h (100 = growth as untreated, 0 = no growth, -100 = all killed)
CONDITIONS: 10 µM unless noted
About 83,000 compounds went through this panel and 20% of them were active in at least one assay; those are over-represented in the sample as a whole.
Lab note: compare growth against 20%. Equal or greater, write 1. Smaller, write -1.

NC(=NCCCOc1ccc(Cl)cc1)Nc1ccc(Cl)cc1 -1

Q) Tell me whether growth is at least 20% here: Cc1cc(N2CCOCC2)nc(NCc2cc(Nc3ccnc4cc(Cl)ccc34)ccc2F)n1
A) -1

Q) Tell me whether growth is at least 20% here: c1ccc(-c2cc3n4c(-c5ccccc5)nn(-c5ccccc5)c4cnc-3n2)cc1
A) 1

Q) Tell me whether growth is at least 20% here: Oc1ccccc1-c1nnc(CNc2ccc(Cl)cc2)o1
A) -1

Q) Tell me whether growth is at least 20% here: O=c1cc(CSc2nnc(-c3ccc(F)cc3)o2)c2ccc3ccccc3c2o1
A) 1

Q) Tell me whether growth is at least 20% here: CC1=CC(C)(C)Nc2ccc(Cc3ccc4c(c3)C(C)=CC(C)(C)N4)cc21
A) 1

Q) Tell me whether growth is at least 20% here: N#Cc1nnn(-c2ccc(S(N)(=O)=O)cc2)c1NCC(=O)c1ccccc1
A) 1

Q) Tell me whether growth is at least 20% here: CC1(C)CC[C@]2(C(=O)Nc3ccccn3)CC[C@]3(C)C(=CC[C@@H]4[C@@]5(C)C/C(=C/c6cccnc6)C(=O)C(C)(C)[C@@H]5CC[C@]43C)[C@H]2C1
A) 1

Q) Tell me whether growth is at least 20% here: CC/C=C\C/C=C\C[C@H]1C/C=C2/C(=O)C=C[C@@H]2C/C=C\CCC(=O)O1
A) -1
